pKi listing for selected compounds.
molecular target: human GalR3 receptor (Homo sapiens)
Sequence (O60755 whole entry): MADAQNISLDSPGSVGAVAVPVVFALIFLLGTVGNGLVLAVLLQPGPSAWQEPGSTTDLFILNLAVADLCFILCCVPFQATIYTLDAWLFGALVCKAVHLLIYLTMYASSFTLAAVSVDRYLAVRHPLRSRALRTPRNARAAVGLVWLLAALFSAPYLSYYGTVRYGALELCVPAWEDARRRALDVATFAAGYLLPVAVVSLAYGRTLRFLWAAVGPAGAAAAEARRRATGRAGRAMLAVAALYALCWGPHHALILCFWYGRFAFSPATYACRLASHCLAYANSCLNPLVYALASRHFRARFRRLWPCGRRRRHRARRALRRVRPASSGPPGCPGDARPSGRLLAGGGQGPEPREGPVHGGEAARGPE
pKi: −log10 of the molar value.

compound	pKi
CC1CC(C)CN(c2nc(Nc3cccc(OCc4ccccc4)c3)cc(N(C)C)n2)C1 (centres unmarked) [Example 38]	7.82
Cc1ccc(Nc2cc(N(C)C)nc(N3CCN(c4cccc(Cl)c4)CC3)n2)cc1 [Example 1]	7.19
COc1cccc(Nc2cc(N(C)C)nc(N3CCN(c4cccc(Cl)c4)CC3)n2)c1 [Example 8]	6.97
C[C@@H]1CN(c2nc(Nc3ccc(Cl)c(Cl)c3)cc(N(C)C)n2)C[C@H](C)O1 [Example 51]	7.09
Clc1ccc(Nc2cc(N3CCN(c4ccccn4)CC3)nc(N3CCN(c4ccccn4)CC3)n2)cc1Cl [Example 43]	7.22
CN(C)c1cc(Nc2cccc(OCc3ccccc3)c2)nc(N2CCN(c3ncccn3)CC2)n1 [Example 41]	7.85
Cc1ccc(Nc2cc(N(C)C)nc(N3CCN(c4ccc(Cl)cc4)CC3)n2)cc1 [Example 7]	6.45
CN(C)c1cc(Nc2ccc(Cl)c(Cl)c2)nc(N2CCN(c3ccc(Cl)cc3)CC2)n1 [Example 54]	6.82
